- EXPERIMENT SUMMARY: Plasma concentration in rat at 300 mg/kg, po after 4 hrs by Irwin test
- Type: ADME, organism-based
- Set-up: dose 300 mg/kg, route oral
REPORTED PROPERTY: concentration at 4 h (ng/mL)
Report the value in ng/mL with no unit label.

Looking up Nc1cc(CN2CCC(F)(C(=O)N3CCC(N4CCc5ccccc5CC4)CC3)CC2)ccn1 , I found its concentration at 4 h recorded as 4940

====

- EXPERIMENT SUMMARY: Drug uptake in rat brain at 100 mg/kg, po after 4 hrs by Irwin test
- Format: ADME, organism-based
- Design: dose 100 mg/kg, route oral
- SETTINGS: read-out: Drug uptake
REPORTED PROPERTY: concentration at 4 h (ng/g)
Report the value in ng/g with no unit label.

Looking up Nc1cc(CN2CCC(F)(C(=O)N3CCC(N4CCc5ccccc5CC4)CC3)CC2)ccn1 , I found its concentration at 4 h recorded as 13700
